molecular target: recombinant human BACE1 (Homo sapiens); assay: β-Secretase (BACE1) enzyme inhibition FRET assay; type: biochemical; settings: Table 8; read-out: BACE IC50
Sequence (P56817 46-501 limits assumed): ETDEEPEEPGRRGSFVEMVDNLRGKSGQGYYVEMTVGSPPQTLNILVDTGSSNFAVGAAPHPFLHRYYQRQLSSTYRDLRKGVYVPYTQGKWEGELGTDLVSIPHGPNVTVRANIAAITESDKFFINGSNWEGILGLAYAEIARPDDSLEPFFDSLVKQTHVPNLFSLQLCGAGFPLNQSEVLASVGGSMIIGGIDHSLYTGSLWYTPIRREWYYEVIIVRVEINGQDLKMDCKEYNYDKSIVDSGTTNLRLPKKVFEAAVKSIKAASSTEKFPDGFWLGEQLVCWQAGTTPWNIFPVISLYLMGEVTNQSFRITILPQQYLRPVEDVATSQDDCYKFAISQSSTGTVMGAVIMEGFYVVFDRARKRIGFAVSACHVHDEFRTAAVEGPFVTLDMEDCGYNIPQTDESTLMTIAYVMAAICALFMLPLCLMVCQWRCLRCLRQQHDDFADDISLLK
IC50 values for the compounds below.
VALUE_KIND: IC50

COMPOUND: COc1ccc(C2(c3ccc(OC)cc3)NC(=N)N(C3CCOCC3)C2=O)cc1
TEST_VALUE: ~10 µM

COMPOUND: COc1ccc(C2(c3cccc(-c4cccnc4)c3)NC(=N)N(C3CCCCC3)C2=O)cc1 (stereo not drawn)
TEST_VALUE: ~7.15 µM

COMPOUND: COc1ccc(C2(c3ccc(OC)cc3)NC(=N)N(C3CCN(C(=O)OC(C)(C)C)CC3)C2=O)cc1
TEST_VALUE: 6.01 µM
